// zone of inhibition at 300 µg/mL lookup, one value per entry
Tested on: Bacillus subtilis
method_summary: Antibacterial activity against Bacillus subtilis at 300 ug/ml after 24 hrs by agar well diffusion method
Format: functional
condition_set: read-out: DIZ
Please state the figure in mm; there is no need to write the unit.

- compound: "Cn1cc(C=C2C(=O)OC(C)(C)OC2=O)c2cc(Br)ccc21"
  obs_value: 15
- compound: "CCn1cc(C=C2C(=O)OC(C)(C)OC2=O)c2cc([N+](=O)[O-])ccc21"
  obs_value: 14

Param readout = zone of inhibition at 300 µg/mL; param system = Bacillus subtilis; param query = Cn1cc(C=C2C(=O)OC(C)(C)OC2=O)c2ccccc21 ; response: value
15

Give Bacillus subtilis zone of inhibition at 300 µg/mL for CCn1cc(C=C2C(=O)OC(C)(C)OC2=O)c2cc(OC)ccc21
13

What value of zone of inhibition at 300 µg/mL on Bacillus subtilis does COc1ccc2[nH]cc(C=C3C(=O)OC(C)(C)OC3=O)c2c1 have?
14

Given the entry COc1ccc2c(c1)c(C=C1C(=O)OC(C)(C)OC1=O)cn2C , what zone of inhibition at 300 µg/mL was observed with Bacillus subtilis?
14
